B1: tRNA (parent)
chain: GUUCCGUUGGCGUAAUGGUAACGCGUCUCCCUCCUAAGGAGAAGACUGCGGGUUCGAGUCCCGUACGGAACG

variants of: B1; assay: yeast fitness relative to wild type (ratio to wild type); higher = fitter; tRNA-Arg(CCU), competitive growth, 37 C, YPD
Fewer inactive variants are shown than the library holds.
Measured yeast fitness of individual entries

[[record]]
polymer_sequence = "GUUCCGUUGGCGUAAUGGUAACGCGUCUCCCUCCUACGGAGAAGACUGCGGGUUCAAGUCCCGUACGUAACG [A37C G56A G68U]"
quantity = "yeast fitness"
result = 0.602

[[record]]
polymer_sequence = "GUUCCGUUGGCGUAAUGGUAACGCGUCUCCCUCCUAAGGAGCAGACUGCGGGUUCGAGUCCCGGACGGAACG [A42C U64G]"
quantity = "yeast fitness"
result = 0.596

[[record]]
polymer_sequence = "GUUCCGUUGGCGUAAUGGUAACGCGUCUGCCUCCUAAGGAGAAGGCUGCGGGUUCGAGUCCCGUACGGAACG [C29G A45G]"
quantity = "yeast fitness"
result = 0.609

[[record]]
polymer_sequence = "GUUCCGUUGGCCUAAUGGUAACGCGUCUCCUUCCUAAGGAGAAGACUGCGGGUUCGUGUCCCGUACGGAACG [G12C C31U A57U]"
quantity = "yeast fitness"
result = 0.603

[[record]]
polymer_sequence = "GAUCAGUUGGCGUAAUGGUAACGCGUCUCCCUCCUAAGGAACAGACUGCCGGUUCGAGUCCCGUACGGAGCG [U2A C5A G41A A42C G50C A70G]"
quantity = "yeast fitness"
result = "≤ 0.5"


Q: Suppose we examine the variant GUUCCGUUGGCGUAGUGGUAACGCGUCUCCCUCCUAAGGAGCAGACUGCGGGUUCGAGUCCCGUACGGAACG [A15G A42C] ; what yeast fitness value has been reported?
Result: 0.863

Q: Also GUGCUGUUGGCGUAAUGGUAACGCGACUCCCUCCUAAGGAGAAGCCUGCGGGUUCGAGCCCCGUACGGAACG [U3G C5U U26A A45C U59C] ?
Result: ≤ 0.5

Q: Okay, and GUUCCAUUGGAGUAAUGGUAACGCGUCUCCCUCCUAAGGAGAAGACUGUGGGUUCGAGUCCCGUGCGGAACG [G6A C11A C49U A65G] ?
Result: ≤ 0.5
